STUDY_TARGET: Alpha-synuclein (Homo sapiens, UniProt P37840)
EXPERIMENT_SUMMARY: Displacement of Thio-T from recombinant alpha-synuclein (unknown origin) expressed in Escherichia coli after 1.5 hrs by fluorescence assay
Reported values of Ki for individual entries

Here is how some compounds turned out for Ki.
{"COMPOUND": "CN(C)c1ccc(/C=C/C=C2\\C(=O)N(c3ccccc3)c3ccccc32)cc1 (mixture of isomers)", "Ki": "0.0681 µM"}
{"COMPOUND": "CN(C)c1ccc(/C=C2\\C(=O)Nc3ccc(O)cc32)cc1 (mixture of isomers)", "Ki": "0.407 µM"}
{"COMPOUND": "O=C1/C(=C/c2ccc([N+](=O)[O-])cc2)c2ccccc2N1Cc1ccccc1", "Ki": "0.959 µM"}
{"COMPOUND": "CN(C)c1ccc(/C=C/C=C2\\C(=O)Nc3ccccc32)cc1 (mixture of isomers)", "Ki": "0.0407 µM"}

Now for the compound whose Ki we want.
I have this compound here, CN(C)c1ccc(/C=C/C=C2\C(=O)N(Cc3ccc(N)cc3)c3ccccc32)cc1 (mixture of isomers) , and I need its recorded Ki. 0.0436 µM
